Test system: PC-3 prostate
assay.explanation: NCI-60 one-dose screen, 48 h (100 = growth as untreated, 0 = no growth, -100 = all killed)
test.parameters: 10 µM unless noted
The panel holds about 83,000 compounds, 20% with a hit somewhere; the sample as a whole holds those more often. Where a SMILES comes first, the peptide text is derived from it. [ ]: non-standard residue; d: D form. ξ: configuration not given here. ξD = NC(CC(=O)O)C(=O)O
// classify: if (growth < 60%) Condition met else Condition not met

| compound | assigned.category |
| --- | --- |
| NCC(=O)NC(CC(=O)O)C(=O)O (configuration not stated) (H-Gly-[ξD]-OH) | Condition not met |
| Cc1ccc(/C=C2\CNC/C(=C\c3ccc(C)cc3)C2=O)cc1 | Condition met |
| CCCCN(CCCC)CCCCCCCCCCO | Condition not met |
| CC(CSc1n[nH]c(=S)s1)c1ccccc1 (configuration not stated) | Condition not met |
| CCOc1ccc(Nc2nc3c(s2)C(=O)c2ccccc2C3=O)cc1 | Condition met |
| S=C=Nc1ccc(N2CCOCC2)cc1 | Condition not met |
| CN(C)c1ccc(/C=C/c2sc3ccc4ccccc4c3[n+]2C)cc1 | Condition met |
